Test system: TK-10 renal
assay.details: NCI-60 one-dose screen, 48 h (100 = growth as untreated, 0 = no growth, -100 = all killed)
condition.summary: 10 µM unless noted
About 83,000 compounds went through this panel and 20% of them were active in at least one assay; those are over-represented in the sample as a whole.
measured.parameter: growth (%)
Number only, in %; omit the unit.

For `CC(=O)Nc1ccc2nc3ccc(NC(C)=O)cc3[n+](-c3ccccc3)c2c1` , what is its reported growth?
140

Entry `CCCSc1nc(N)nc2nc[nH]c12` please
154

Entry `O=S(=O)(c1ccc(N/N=C\c2ccccc2Cl)cc1)c1ccc(N/N=C/c2ccccc2Cl)cc1` please
110

Entry `Cc1cc(NN=C(c2ccc(O)cc2)c2ccc(O)cc2)c([N+](=O)[O-])cc1[N+](=O)[O-]` please
51.4

Entry `Nc1nc(Nc2ccccc2)c2ncn(Cc3ccc4c(c3)OCO4)c2n1` please
63.3
